Test: Plasma pharmacokinetics of BI 187004 after single oral doses (LC–MS/MS)
Settings: male, human, plasma, po, 80 mg, BI 187004 plasma concentrations, 80 mg single oral, planned time 24 h, gMean
property.name: concentration at 24 h (nM)

chemical_smiles=N#Cc1ccc2c(c1)[C@H]1CCCN(C(=O)c3ccc4[nH]cnc4c3)[C@H]1C2 property_name="concentration at 24 h" value_unit=nM measured_number=878

----------
Test: Plasma pharmacokinetics of BI 187004 after single oral doses (LC–MS/MS)
Settings: male, human, plasma, po, 5 mg, Plasma concentration gMean, 5 mg single oral; 2 h
property.name: concentration at 2 h (nM)

compound="N#Cc1ccc2c(c1)[C@H]1CCCN(C(=O)c3ccc4[nH]cnc4c3)[C@H]1C2 [BI 187004]" value_unit=nM measured_number=121

----------
Assay: Plasma pharmacokinetics of BI 187004 after single oral doses (LC–MS/MS)
Details: male, human, plasma, oral, 360 mg, Plasma C10 gMean (range), 360 mg single dose; 10 h
property.name: concentration at 10 h (µM)

chemical_smiles=N#Cc1ccc2c(c1)[C@H]1CCCN(C(=O)c3ccc4[nH]cnc4c3)[C@H]1C2 measured_number=5.3

----------
Test: Plasma pharmacokinetics of BI 187004 after single oral doses (LC–MS/MS)
Settings: male, human, plasma, po, 80 mg, BI 187004 plasma concentrations, 80 mg single oral, planned time 3 h, Mean
property.name: concentration at 3 h (nM)

chemical_smiles=N#Cc1ccc2c(c1)[C@H]1CCCN(C(=O)c3ccc4[nH]cnc4c3)[C@H]1C2 measured_number=2240

----------
Experiment: Plasma pharmacokinetics of BI 187004 after single oral doses (LC–MS/MS)
Settings: male, human, plasma, po, 40 mg, BI 187004 plasma concentrations, 40 mg single oral, planned time 1 h, Median
property.name: concentration at 1 h (nM)

chemical_smiles=N#Cc1ccc2c(c1)[C@H]1CCCN(C(=O)c3ccc4[nH]cnc4c3)[C@H]1C2 value_unit=nM measured_number=2410

----------
Assay: Plasma pharmacokinetics of BI 187004 after single oral doses (LC–MS/MS)
Conditions: male, human, plasma, po, 240 mg, BI 187004 plasma concentrations, Mean, 240 mg single oral, planned time 1 h
property.name: concentration at 1 h (µM)

chemical_smiles=N#Cc1ccc2c(c1)[C@H]1CCCN(C(=O)c3ccc4[nH]cnc4c3)[C@H]1C2 property_name="concentration at 1 h" measured_number=7.49

----------
Assay: Plasma pharmacokinetics of BI 187004 after single oral doses (LC–MS/MS)
Conditions: male, human, plasma, po, 40 mg, BI 187004 plasma concentrations, 40 mg single oral, planned time 72 h, Min
property.name: concentration at 72 h (nM)

chemical_smiles=N#Cc1ccc2c(c1)[C@H]1CCCN(C(=O)c3ccc4[nH]cnc4c3)[C@H]1C2 property_name="concentration at 72 h" measured_number=8.48

----------
Experiment: Plasma pharmacokinetics of BI 187004 after single oral doses (LC–MS/MS)
Settings: male, human, plasma, po, 10 mg, Plasma concentration gMean, 10 mg single oral; 72 h
property.name: concentration at 72 h (nM)

chemical_smiles=N#Cc1ccc2c(c1)[C@H]1CCCN(C(=O)c3ccc4[nH]cnc4c3)[C@H]1C2 property_name="concentration at 72 h" measured_number=10.2

----------
Assay: Plasma pharmacokinetics of BI 187004 after single oral doses (LC–MS/MS)
Conditions: male, human, plasma, po, 240 mg, BI 187004 plasma concentrations, Mean, 240 mg single oral, planned time 1.5 h
property.name: concentration at 1.5 h (µM)

molecule="N#Cc1ccc2c(c1)[C@H]1CCCN(C(=O)c3ccc4[nH]cnc4c3)[C@H]1C2 [BI 187004]" measured_number=6.42

----------
Experiment: Plasma pharmacokinetics of BI 187004 after single oral doses (LC–MS/MS)
Conditions: male, human, plasma, po, 10 mg, Plasma concentration Mean, 10 mg single oral; 2 h
property.name: concentration at 2 h (nM)

compound="N#Cc1ccc2c(c1)[C@H]1CCCN(C(=O)c3ccc4[nH]cnc4c3)[C@H]1C2 [BI 187004]" measured_number=382

----------
Assay: Plasma pharmacokinetics of BI 187004 after single oral doses (LC–MS/MS)
Conditions: male, human, plasma, po, 160 mg, BI 187004 plasma concentrations, 160 mg single oral, planned time 1 h, Median
property.name: concentration at 1 h (µM)

chemical_smiles=N#Cc1ccc2c(c1)[C@H]1CCCN(C(=O)c3ccc4[nH]cnc4c3)[C@H]1C2 value_unit=µM measured_number=7.64

----------
Assay: Plasma pharmacokinetics of BI 187004 after single oral doses (LC–MS/MS)
Conditions: male, human, plasma, po, 360 mg, BI 187004 plasma concentrations, Max, 360 mg single oral, planned time 4 h
property.name: concentration at 4 h (µM)

chemical_smiles=N#Cc1ccc2c(c1)[C@H]1CCCN(C(=O)c3ccc4[nH]cnc4c3)[C@H]1C2 value_unit=µM measured_number=12.2

----------
Test: Plasma pharmacokinetics of BI 187004 after single oral doses (LC–MS/MS)
Details: male, human, plasma, po, 20 mg, BI 187004 plasma concentrations, 20 mg single oral, planned time 36 h, gMean
property.name: concentration at 36 h (nM)

chemical_smiles=N#Cc1ccc2c(c1)[C@H]1CCCN(C(=O)c3ccc4[nH]cnc4c3)[C@H]1C2 measured_number=55.4

----------
Assay: Plasma pharmacokinetics of BI 187004 after single oral doses (LC–MS/MS)
Conditions: male, human, plasma, po, 160 mg, BI 187004 plasma concentrations, 160 mg single oral, planned time 0.5 h, Min
property.name: concentration at 0.5 h (nM)

chemical_smiles=N#Cc1ccc2c(c1)[C@H]1CCCN(C(=O)c3ccc4[nH]cnc4c3)[C@H]1C2 property_name="concentration at 0.5 h" value_unit=nM measured_number=2520

----------
Assay: Plasma pharmacokinetics of BI 187004 after single oral doses (LC–MS/MS)
Conditions: male, human, plasma, po, 20 mg, BI 187004 plasma concentrations, 20 mg single oral, planned time 8 h, individual subjects
property.name: concentration at 8 h (nM)

chemical_smiles=N#Cc1ccc2c(c1)[C@H]1CCCN(C(=O)c3ccc4[nH]cnc4c3)[C@H]1C2 value_unit=nM measured_number=645

----------
Assay: Plasma pharmacokinetics of BI 187004 after single oral doses (LC–MS/MS)
Conditions: male, human, plasma, po, 80 mg, BI 187004 plasma concentrations, 80 mg single oral, planned time 1.5 h, Min
property.name: concentration at 1.5 h (µM)

chemical_smiles=N#Cc1ccc2c(c1)[C@H]1CCCN(C(=O)c3ccc4[nH]cnc4c3)[C@H]1C2 property_name="concentration at 1.5 h" measured_number=0.958

----------
Assay: Plasma pharmacokinetics of BI 187004 after single oral doses (LC–MS/MS)
Conditions: male, human, plasma, po, 360 mg, BI 187004 plasma concentrations, Mean, 360 mg single oral, planned time 1 h
property.name: concentration at 1 h (µM)

chemical_smiles=N#Cc1ccc2c(c1)[C@H]1CCCN(C(=O)c3ccc4[nH]cnc4c3)[C@H]1C2 property_name="concentration at 1 h" measured_number=13.1

----------
Assay: BI 187004 concentration in subcutaneous adipose tissue biopsies (LC–MS/MS)
Assay type: in vivo, human
Details: male, human, subcutaneous adipose tissue, oral; 20 mg single dose; 10 h; read-out: AT:plasma ratio (range) 10 h
property.name: Kp at 10 h

compound="N#Cc1ccc2c(c1)[C@H]1CCCN(C(=O)c3ccc4[nH]cnc4c3)[C@H]1C2 [BI 187004]" property_name="Kp at 10 h" measured_number=9.97

----------
Assay: Plasma pharmacokinetics of BI 187004 after single oral doses (LC–MS/MS)
Conditions: male, human, plasma, po, 160 mg, BI 187004 plasma concentrations, 160 mg single oral, planned time 5 h, Median
property.name: concentration at 5 h (µM)

chemical_smiles=N#Cc1ccc2c(c1)[C@H]1CCCN(C(=O)c3ccc4[nH]cnc4c3)[C@H]1C2 measured_number=4.9

----------
Assay: Plasma pharmacokinetics of BI 187004 after single oral doses (LC–MS/MS)
Conditions: male, human, plasma, po, 80 mg
property.name: Tmax (h)

compound="N#Cc1ccc2c(c1)[C@H]1CCCN(C(=O)c3ccc4[nH]cnc4c3)[C@H]1C2 [BI 187004]" property_name=Tmax measured_number=2.25

----------
Assay: Plasma pharmacokinetics of BI 187004 after single oral doses (LC–MS/MS)
Details: male, human, plasma, po, 5 mg, Plasma concentration gMean, 5 mg single oral; 1 h
property.name: concentration at 1 h (nM)

molecule="N#Cc1ccc2c(c1)[C@H]1CCCN(C(=O)c3ccc4[nH]cnc4c3)[C@H]1C2 [BI 187004]" property_name="concentration at 1 h" value_unit=nM measured_number=144

----------
Test: Plasma pharmacokinetics of BI 187004 after single oral doses (LC–MS/MS)
Details: male, human, plasma, po, 20 mg, BI 187004 plasma concentrations, 20 mg single oral, planned time 2 h, Mean
property.name: concentration at 2 h (nM)

compound="N#Cc1ccc2c(c1)[C@H]1CCCN(C(=O)c3ccc4[nH]cnc4c3)[C@H]1C2 [BI 187004]" measured_number=877
